experiment: In vivo pharmacokinetic experiment in CD-1 female mice, intravenous; details: mouse, 2 mg/kg, CD-1 mice, 2 mpk, plasma, read-out: AUClast
ASSAY READOUT: AUC(0-t) (ng·h/mL)

NS(=O)(=O)OC[C@H]1[C@H](F)[C@@H](Nc2ncncc2C(=O)c2cc3c(s2)CCC[C@]32NCCc3ccc(Cl)cc32)C[C@@H]1O	615
NS(=O)(=O)OC[C@H]1[C@H](F)[C@@H](Nc2ncncc2C(=O)c2cc3c(s2)C=C[C@]32NCCc3ccc(Cl)cc32)C[C@@H]1O	345
NS(=O)(=O)OC[C@H]1[C@H](F)[C@@H](Nc2ncncc2C(=O)c2cc3c(s2)CC[C@]32NCCc3ccc(Cl)cc32)C[C@@H]1O	602
NS(=O)(=O)OC[C@H]1[C@H](F)[C@@H](Nc2ncncc2C(=O)c2cc3c(s2)CCC[C@]32NCCc3ccc(F)cc32)C[C@@H]1O	448

###

test: In vivo pharmacokinetic experiment in CD-1 female mice, intravenous; settings: mouse, 1 mg/kg, CD-1 mice, 1 mpk, plasma
ASSAY READOUT: C0 (ng/mL)
State the answer as a number, implicitly in ng/mL.

Entry under review: Cc1sc(C(=O)c2cncnc2N[C@H]2C[C@H](O)[C@@H](COS(N)(=O)=O)[C@@H]2F)cc1[C@@H]1NCCc2ccc(Cl)cc21 . Reported C0?
77

###

test: In vivo pharmacokinetic experiment in CD-1 female mice, intravenous; conditions: mouse, 1 mg/kg, CD-1 mice, 1 mpk, plasma, read-out: AUClast
ASSAY READOUT: AUC(0-t) (ng·h/mL)
// return numeric value only (unit: ng·h/mL, not printed)

Need AUC(0-t), item Cc1sc(C(=O)c2cncnc2N[C@H]2C[C@H](O)[C@@H](COS(N)(=O)=O)[C@@H]2F)cc1[C@@H]1NCCc2ccc(Cl)cc21
132

###

Experiment: In vivo pharmacokinetic experiment in CD-1 female mice, intravenous
Details: mouse, 2 mg/kg, CD-1 mice, 2 mpk, whole blood, read-out: Whole blood AUClast
Experimental: Biological Example 3. In Vivo Pharmacokinetic Experiment of Compound of the Present Disclosure […] The plasma concentration was processed using a non-compartmental model of Phoenix WinNonlin™ version 8.3 (Certara) pharmacokinetic software, and the pharmacokinetic parameters were calculated using a linear-log trapezoidal method.
ASSAY READOUT: AUC(0-t) (ng·h/mL)

A = NS(=O)(=O)OC[C@H]1[C@H](F)[C@@H](Nc2ncncc2C(=O)c2cc3c(s2)CCC[C@]32NCCc3ccc(F)cc32)C[C@@H]1O
B = NS(=O)(=O)OC[C@H]1[C@H](F)[C@@H](Nc2ncncc2C(=O)c2cc3c(s2)CC[C@]32NCCc3ccc(Cl)cc32)C[C@@H]1O
Kindly identify which of A and B has the larger recorded AUC(0-t) value. Selection: enter the item's label.
B

P = NS(=O)(=O)OC[C@H]1[C@H](F)[C@@H](Nc2ncncc2C(=O)c2cc3c(s2)CCC[C@]32NCCc3ccc(Cl)cc32)C[C@@H]1O
Q = NS(=O)(=O)OC[C@H]1[C@H](F)[C@@H](Nc2ncncc2C(=O)c2cc3c(s2)C=C[C@]32NCCc3ccc(Cl)cc32)C[C@@H]1O
# return whichever of P and Q has the smaller AUC(0-t) Select an item and report its label.
Q
(Q: 17000 ng·h/mL, P: 46600 ng·h/mL)
